Listed next: entries and their corresponding GI50.
system: DU-145; assay: NCI tumour cell line growth inhibition, 48 h
The source made the active and inactive calls. Rule as the data show it: active = GI50 up to about 1.1 µM and inactive = higher.

>  <COMPOUND>
CC1(C)C2CCC1C(=O)[C@@]1(C=CC(=O)CC1)C2 (some centres not stated)

>  <GI50>
> 100 µM (inactive)

$$$$
>  <COMPOUND>
O=[N+]([O-])C(=C1Nc2ccccc2N1)C(Cl)=C(Cl)Cl

>  <GI50>
> 100 µM (inactive)

$$$$
>  <COMPOUND>
C[C@H](OC(=O)/C=C/c1ccc(O)c(O)c1)[C@H](C)OC(=O)/C=C/c1ccc(O)c(O)c1

>  <GI50>
11.6 µM (inactive)

$$$$
>  <COMPOUND>
Clc1cc2nnn(C3CCCCO3)c2cc1Cl (configuration not stated)

>  <GI50>
99.1 µM (inactive)

$$$$
>  <COMPOUND>
O=C1CSc2ccnc(=O)n21

>  <GI50>
> 100 µM (inactive)

$$$$
>  <COMPOUND>
O=C(O)C(C1NCCS1)N1Cc2ccccc2C1 (configuration not stated)

>  <GI50>
> 100 µM (inactive)

$$$$
>  <COMPOUND>
COc1cccc(/C(CC(O)(C(F)(F)F)C(F)(F)F)=N\N(C)C)c1

>  <GI50>
> 100 µM (inactive)

$$$$
>  <COMPOUND>
COc1ccccc1NC1=NCC(C)S1 (configuration not stated)

>  <GI50>
> 100 µM (inactive)

$$$$
>  <COMPOUND>
Cc1nc2ccccc2nc1N1CCCC1

>  <GI50>
> 100 µM (inactive)

$$$$
>  <COMPOUND>
c1ccc2c(c1)SC1=Nc3sc4ccccc4[n+]3CN12

>  <GI50>
27.8 µM (inactive)

$$$$
>  <COMPOUND>
O=c1c2ccccc2c2ccccc2c(=O)n1Cc1ccc2c(c1)OCO2

>  <GI50>
49.9 µM (inactive)

$$$$
>  <COMPOUND>
CCCCNc1nc(N)nc(Nc2ccc(Br)cc2)c1N=O

>  <GI50>
96.8 µM (inactive)

$$$$
